Target: T1, siglec 8 expressed on HEK293 cells (UniProt Q9NYZ4 17-499, limits assumed)
T1 construct: whole, on cells; also called Siglec-6 family member
T1 sequence (Q9NYZ4 17-499 limits assumed): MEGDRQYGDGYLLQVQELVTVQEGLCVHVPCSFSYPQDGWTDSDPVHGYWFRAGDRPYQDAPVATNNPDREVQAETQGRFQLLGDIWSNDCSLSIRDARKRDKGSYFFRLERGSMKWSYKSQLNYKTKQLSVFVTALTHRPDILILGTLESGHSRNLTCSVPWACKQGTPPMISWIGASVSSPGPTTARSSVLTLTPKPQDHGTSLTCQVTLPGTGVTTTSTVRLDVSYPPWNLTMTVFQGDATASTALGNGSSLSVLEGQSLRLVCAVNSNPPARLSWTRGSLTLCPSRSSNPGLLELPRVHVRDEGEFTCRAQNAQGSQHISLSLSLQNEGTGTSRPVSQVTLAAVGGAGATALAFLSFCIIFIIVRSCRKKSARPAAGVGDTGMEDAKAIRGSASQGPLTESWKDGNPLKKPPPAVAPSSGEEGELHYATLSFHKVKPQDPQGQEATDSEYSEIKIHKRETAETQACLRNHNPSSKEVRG
Assay: flow cytometry on HEK293 cells expressing the target

BINDER	binding result
hRND-4 (antibody, human IgG1, kappa, V domains shown, also called humanized RND-4; hRND-H2b / hRND-L3; copies: 2 + 2) VH: QVQLVQSGAEVKKPGASVKVSCKASGYAFTSYWMHWVRQAPGQRLEWMGEIYPTNGGTTYNEKFKRRVTMTVDKSTSTAYMELSRLRSDDTAVYYCTIEDFYAMDYWGQGTTVTVSS VL: DIVMTQTPLSLSVTPGQPASISCKSSQSLLDSDGKTSLNWLLQKPGQSPQRLIYLVSKLDSGVPDRFSGSGSGTDFTLKISRVEAEDVGVYYCWQGTHFPYTFGQGTKLEIKR	no binding
hRND-5 (antibody, human IgG1, kappa, V domains shown, also called humanized RND-5; hRND-H3b / hRND-L3; copies: 2 + 2) VH: QVQLVQSGAEVKKPGASVKLSCKASGYAFTSYWMHWVRQAPGQRLEWIGEIYPTNGGTTYNEKFKRRATLTVDKSTSTAYMELSRLRSDDTAVYYCTIEDFYAMDYWGQGTTVTVSS VL: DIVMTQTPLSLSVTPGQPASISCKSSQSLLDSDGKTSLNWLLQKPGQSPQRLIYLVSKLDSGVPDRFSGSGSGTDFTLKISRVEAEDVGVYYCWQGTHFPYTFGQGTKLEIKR	no binding
hRND-3 (antibody, human IgG1, kappa, V domains shown, also called humanized RND-3; hRND-H3 / hRND-L3; copies: 2 + 2) VH: QVQLVQSGAEVKKPGASVKLSCKASGYAFTSYWMHWVRQAPGQRLEWIGEIYPTNGGTTYAQKFQGRATLTVDKSTSTAYMELSRLRSDDTAVYYCTIEDFYAMDYWGQGTTVTVSS VL: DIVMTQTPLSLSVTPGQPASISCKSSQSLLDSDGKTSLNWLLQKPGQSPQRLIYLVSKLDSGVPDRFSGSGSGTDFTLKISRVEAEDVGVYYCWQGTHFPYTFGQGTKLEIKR	no binding
